Molecular target: Fuc(a1-4)GlcNAc
Assay: glycan array binding signal (z-score within array); higher = stronger binding
Conditions: glycan notation: IUPAC condensed, linker removed
The entries come from a sample that favours the strongest signals as a whole.
metric_name: glycan array binding signal (z-score)
Could you keep your reply to the number by itself?

SP8524D-bot-399-27-399 (Bacteroides ovatus) (protein) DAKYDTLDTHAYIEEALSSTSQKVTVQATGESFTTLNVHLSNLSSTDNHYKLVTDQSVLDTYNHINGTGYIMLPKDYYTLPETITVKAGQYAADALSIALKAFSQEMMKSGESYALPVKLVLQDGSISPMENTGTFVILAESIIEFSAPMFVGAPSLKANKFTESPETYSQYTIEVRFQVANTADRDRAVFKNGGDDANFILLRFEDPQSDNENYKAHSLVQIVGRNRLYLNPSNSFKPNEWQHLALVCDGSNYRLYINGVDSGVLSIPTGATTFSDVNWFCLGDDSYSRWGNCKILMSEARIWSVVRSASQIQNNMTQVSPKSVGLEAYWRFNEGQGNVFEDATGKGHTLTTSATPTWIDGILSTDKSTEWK = 6.02

# ---- query binder ----
Q: Please look up its glycan array binding signal (z-score): CD34 (Homo sapiens), P28906 (protein) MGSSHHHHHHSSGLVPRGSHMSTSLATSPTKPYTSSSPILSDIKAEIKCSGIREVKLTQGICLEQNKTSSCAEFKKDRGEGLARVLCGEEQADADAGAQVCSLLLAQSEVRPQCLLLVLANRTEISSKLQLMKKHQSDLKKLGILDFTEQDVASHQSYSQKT
Ans: 0.624

Source listed as the supplement of paper PMC8728848.
